Origin of measurements: patent US10858366B2

target.desc: RNP_CAL (PB2, PB1, PA, NP, influenza A Luciferase reporter in 293T cells) (Influenza A virus (strain swl A/California/04/2009 H1N1), UniProt C3W5S0)
assay.explanation: cell-based
quantity: log10(EC50) (log10 of the value in nM)
Each number you see is log10 of EC50, and the unit inside the log is nM.

Worked cases, log10(EC50) given:
[[record]]
compound = "O=c1cnn2c(c1O)-c1ncnn1CC2C(c1ccccc1)c1ccccc1 (stereo not shown)"
quantity = "log10(EC50)"
observed_result = 3.04

[[record]]
compound = "N#Cc1cnc2n1C[C@H](C(c1ccc(F)cc1)c1ccc(F)cc1)n1ncc(=O)c(O)c1-2"
quantity = "log10(EC50)"
observed_result = 2.91

[[record]]
compound = "N#Cc1cccc([C@H](c2cccc(F)c2)[C@H]2Cn3ccnc3-c3c(O)c(=O)cnn32)c1"
quantity = "log10(EC50)"
observed_result = 1.81

[[record]]
compound = "CC1(C)N(C(c2ccccc2)c2ccccc2)n2ccc(=O)c(O)c2-c2nccn21"
quantity = "log10(EC50)"
observed_result = 2.48


Consider O=c1ccn2c(c1O)-c1ncc(Br)n1C[C@@H]2C(c1ccccc1)c1ccccc1 . Its measured log10(EC50) is 2.23

Consider O=c1ccn2c(c1O)-c1ncc(CNC3CCOCC3)n1C[C@@H]2C(c1ccccc1)c1ccccc1 . Its measured log10(EC50) is 3.54

Consider O=c1cnn2c(c1O)-c1nccn1C[C@@H]2[C@@H](c1ccc(F)cc1)c1ccccc1Cl . Its measured log10(EC50) is 1.86

Consider N#Cc1cccc([C@H](c2ccc(F)cc2)[C@H]2Cn3ccnc3-c3c(O)c(=O)cnn32)c1 . Its measured log10(EC50) is 1.59

----------
target.desc: truncated Influenza A/victoria/75 PA(1-209) (Influenza A virus (strain A/Victoria/3/1975 H3N2))
assay.explanation: Endonuclease Inhibition Assay (PA FP Assay)
experimental.conditions: fluorescence polarization, fluorescein-labeled probe
pIC50: −log10 of the molar value.
Rule: fulfilled for pIC50 not less than 7, not fulfilled for anything less.

These solved cases illustrate the format of a correct answer.
[[record]]
compound = "O=c1ccn2c(c1O)-c1ncc(Cl)n1C[C@@H]2C(c1ccccc1)c1ccccc1 [Example 5]"
group = "fulfilled"

[[record]]
compound = "N#Cc1cccc([C@H](c2cccc(F)c2)[C@H]2Cn3ccnc3-c3c(O)c(=O)cnn32)c1 [Example 46]"
group = "fulfilled"

[[record]]
compound = "O=c1cnn2c(c1O)-c1nccn1C[C@@H]2C(c1cccc(F)c1)c1cccc(F)c1 [Example 23]"
group = "fulfilled"

[[record]]
compound = "O=c1cnn2c(c1O)-c1nccn1C[C@@H]2[C@H](c1ccc(F)cc1)c1ccc(C(F)(F)F)nc1 [Example 20]"
group = "not fulfilled"

[[record]]
compound = "O=c1cnn2c(c1O)-c1ncnn1CC2C(c1ccccc1)c1ccccc1 (centres unmarked) [Example 3]"
group = "not fulfilled"


hey, is pIC50 for this one >= 7? O=c1cnn2c(c1O)-c1nccn1C[C@@H]2[C@@H](c1ccc(F)cc1)c1ccc(Cl)cc1 [Example 33]
fulfilled

hey, is pIC50 for this one >= 7? O=c1cnn2c(c1O)-c1nccn1C[C@@H]2[C@@H](c1ccc(F)cc1)c1cccc(Br)c1 [Example 30]
fulfilled

----------
target.desc: RNP_CAL (PB2, PB1, PA, NP, influenza A Luciferase reporter in 293T cells) (Influenza A virus (strain swl A/California/04/2009 H1N1))
assay.explanation: cell-based
pEC50: −log10 of the molar value.
Rule: TRUE for pEC50 not less than 7, FALSE for anything less.

These solved cases illustrate the format of a correct answer.
[[record]]
compound = "O=c1cnn2c(c1O)-c1nccn1C[C@H]2C(c1cccc(Cl)c1)c1cccc(Cl)c1"
group = "FALSE"

[[record]]
compound = "O=c1ccn2c(c1O)-c1nccn1CN2C(c1ccccc1)c1ccccc1"
group = "FALSE"

[[record]]
compound = "C[C@@H](NCc1cnc2n1C[C@H](C(c1ccccc1)c1ccccc1)n1ccc(=O)c(O)c1-2)C(F)(F)F"
group = "FALSE"

[[record]]
compound = "CCc1cnc2n1C[C@H](C(c1ccccc1)c1ccccc1)n1ccc(=O)c(O)c1-2"
group = "FALSE"

[[record]]
compound = "O=C(NC1CC1)c1cnc2n1C[C@H](C(c1ccccc1)c1ccccc1)n1ccc(=O)c(O)c1-2"
group = "FALSE"


hey, is pEC50 for this one >= 7? Cc1cc(F)ccc1[C@H](c1ccc(F)cc1)[C@H]1Cn2ccnc2-c2c(O)c(=O)cnn21
TRUE

hey, is pEC50 for this one >= 7? N#Cc1ccc([C@H](c2ccc(F)cc2)[C@H]2Cn3ccnc3-c3c(O)c(=O)cnn32)cc1
TRUE

hey, is pEC50 for this one >= 7? O=c1cnn2c(c1O)-c1nccn1C[C@@H]2[C@H](c1cccc(F)c1)c1ccc(F)cc1Br
TRUE

hey, is pEC50 for this one >= 7? CC(O)c1cnc2n1C[C@H](C(c1ccccc1)c1ccccc1)n1ccc(=O)c(O)c1-2 (stereo partly shown)
FALSE

hey, is pEC50 for this one >= 7? N#Cc1ccccc1[C@H](c1ccc(F)cc1)[C@H]1Cn2ccnc2-c2c(O)c(=O)cnn21
FALSE

hey, is pEC50 for this one >= 7? O=C(c1cnc2n1C[C@H](C(c1ccccc1)c1ccccc1)n1ccc(=O)c(O)c1-2)N1CCCC1
FALSE

hey, is pEC50 for this one >= 7? CC(C)CC(=O)Oc1c2n(ncc1=O)[C@@H](C(c1ccc(F)cc1)c1ccc(F)cc1)Cn1ccnc1-2
TRUE

hey, is pEC50 for this one >= 7? CC(C)C(=O)Oc1c2n(ncc1=O)[C@@H](C(c1ccc(F)cc1)c1ccc(F)cc1)Cn1ccnc1-2
TRUE
